assay: Human HepG2 cell viability assay in 384 well format; assay type: toxicity, cell-based; design: dose 125 nL, time 70.5 hour; concentration not given beside the values; conditions: HepG2 cells, read-out: Inhibition
Parameter Measured: cytotoxicity at 70.5 h (%)
Give the value, in units of %, as a plain number.

Known results for compounds:
Compound	cytotoxicity at 70.5 h (%)
CCOc1ccc(NS(=O)(=O)c2cc(C)c(C(=O)O)s2)c(C)c1	-3.91
CC1Oc2c(cccc2C(=O)N2CCCCCC2)NC1=O (centres undefined)	29.3
COC(=O)CSCc1nc(-c2ccc(Cl)cc2)no1	11
CCOc1ccc(C(=O)N(CCOC)Cc2c(C)nn(CC)c2C)o1	-6.36
c1cnc(Nc2cc(CCC3CCCNC3)ccn2)cn1 (centres undefined)	-4.31

Ask: Which cytotoxicity at 70.5 h reading was recorded for the compound CC1CN(C)c2ccccc2CN1C(=O)c1cc(C#N)cn1C (centres undefined) ?
Result: 14.8

Ask: Which cytotoxicity at 70.5 h reading was recorded for the compound "COc1cc2nc(NCc3cc(C)on3)nc(N)c2cc1OC" ?
Result: 34.1

* * *

test: Human HepG2 cell viability assay in 384 well format; type: toxicity, cell-based; design: dose 125 nL, time 70.5 hour; concentration not given beside the values; details: HepG2 cells, read-out: Inhibition
Parameter Measured: cytotoxicity at 70.5 h (%)
Give the value, in units of %, as a plain number.

Compound	cytotoxicity at 70.5 h (%)
O=C(Cc1c[nH]c2ccccc12)N1CCC(Nc2cccnc2)CC1	-0.82

Ask: Which cytotoxicity at 70.5 h reading was recorded for the compound "O=C(O)c1cc2c(nc1-c1ccoc1)CCN(Cc1ccco1)CC2" ?
Result: -14.2

Ask: Which cytotoxicity at 70.5 h reading was recorded for the compound c1ccc(CN2CCOCC3(CCN(C4CCOCC4)C3)C2)cc1 (stereo not given) ?
Result: -2.29

Ask: Which cytotoxicity at 70.5 h reading was recorded for the compound "Cn1cc(CN2CCc3onc(COCC4CC4)c3C2)cn1" ?
Result: -12.8

Ask: Which cytotoxicity at 70.5 h reading was recorded for the compound "Nc1cc2c(nn1)CCN(C(=O)Cc1ccc3c(c1)CCO3)C2" ?
Result: 9.71

Ask: Which cytotoxicity at 70.5 h reading was recorded for the compound "CC(C)c1cc(NCC2(CO)CCC2)ncn1" ?
Result: 17.4

Ask: Which cytotoxicity at 70.5 h reading was recorded for the compound "CC1(C)OCC2(CO1)CN(C(=O)c1cccc3ccccc13)C2" ?
Result: -8.48

* * *

assay: Human HepG2 cell viability assay in 384 well format; assay type: toxicity, cell-based; design: dose 125 nL, time 70.5 hour; concentration not given beside the values; settings: HepG2 cells, read-out: Inhibition
Parameter Measured: cytotoxicity at 70.5 h (%)
Give the value, in units of %, as a plain number.

Compound	Parameter Measured	Measured
CCOc1ccc(CN2CCC3(CC2)CNC(=O)C3)cn1	cytotoxicity at 70.5 h	-1.37
Cn1c(CN2CCCC(Cn3cncn3)C2)nc2ccccc21 (stereo not given)	cytotoxicity at 70.5 h	28.9
O=C(COc1ccc(Cl)cc1Cl)N1CCCSCC1CN1CCOCC1 (stereo not given)	cytotoxicity at 70.5 h	0.222
CC(C)c1noc(CCC(=O)N2CCN(Cc3ccncc3)CC2)n1	cytotoxicity at 70.5 h	-7.35
CC(C)(C)c1nnc(CN2CCCC(c3cc(C(N)=O)[nH]n3)C2)o1 (stereo not given)	cytotoxicity at 70.5 h	10.9

Ask: Which cytotoxicity at 70.5 h reading was recorded for the compound "CCc1noc(C)c1C(=O)N(C)Cc1ncc(C)c(OC)c1C" ?
Result: -30.2

Ask: Which cytotoxicity at 70.5 h reading was recorded for the compound COCC1c2c(cnn2C)CCN1Cc1ccc(F)cc1 (stereo not given) ?
Result: -0.871

Ask: Which cytotoxicity at 70.5 h reading was recorded for the compound "Cc1ccc2nc(C3CCN(CC(C)C)CC3)nc(O)c2c1" ?
Result: -6.3

Ask: Which cytotoxicity at 70.5 h reading was recorded for the compound "CCOC(=O)CNC(=O)c1cccnc1Sc1cc(OC)ccc1OC" ?
Result: 11.1

Ask: Which cytotoxicity at 70.5 h reading was recorded for the compound "Cc1cc(=O)[nH]c(=O)n1Cc1ccccc1" ?
Result: -7.18

* * *

The entries below come with measured cytotoxicity at 70.5 h values attached.
experiment: Human HepG2 cell viability assay in 384 well format; type: toxicity, cell-based; parameters: dose 125 nL, time 70.5 hour; concentration not given beside the values; settings: HepG2 cells, read-out: Inhibition

Known results for compounds:
Compound	Parameter Measured	Measured
Cc1cccc(N2CCN(CC(=O)N3CCCC(N(C)C)CC3)CC2)c1 (stereo not drawn)	cytotoxicity at 70.5 h	-4.61%
CN(Cc1nncn1C)C(=O)c1cc(COc2ccccc2)[nH]n1	cytotoxicity at 70.5 h	-5.51%

In the following, a different compound is considered.
Ask: Which cytotoxicity at 70.5 h reading was recorded for the compound "CN1[C@@H](c2ccccc2)[C@@H](C(=O)NCC2CCOCC2)C[C@@]1(C)C(=O)O" ?
Result: -11.8%

* * *

assay: Human HepG2 cell viability assay in 384 well format; assay type: toxicity, cell-based; parameters: dose 125 nL, time 70.5 hour; concentration not given beside the values; details: HepG2 cells, read-out: Inhibition
Parameter Measured: cytotoxicity at 70.5 h (%)
Give the value, in units of %, as a plain number.

Compound	Unit Descriptor	cytotoxicity at 70.5 h
Cc1ccc(C(=O)N2CCC(Oc3c(C)cccc3C)CC2)c(=O)[nH]1	%	0.338
Cc1n[nH]cc1CNCC1(c2ccccc2Cl)CCOCC1	%	-4.88
Cc1ncsc1CCN(C)C(=O)CN1CC2(CCCC2)CC1=O	%	-15

Ask: Which cytotoxicity at 70.5 h reading was recorded for the compound "CCc1sc(C(=O)N2CCC(Nc3ccc(C)nn3)CC2)cc1C" ?
Result: -14.5

* * *

experiment: Human HepG2 cell viability assay in 384 well format; assay type: toxicity, cell-based; set-up: dose 125 nL, time 70.5 hour; concentration not given beside the values; settings: HepG2 cells, read-out: Inhibition
Parameter Measured: cytotoxicity at 70.5 h
Field note: include the unit after the figure.

Compound	Parameter Measured	Measured
CN(Cc1ccsc1)C(=O)CN1CCOC(Cn2cncn2)C1 (stereo not drawn)	cytotoxicity at 70.5 h	-1.49%
COCCN1CCN(Cc2ccc3nsnc3c2)[C@H]2CS(=O)(=O)C[C@H]21	cytotoxicity at 70.5 h	-5.97%

In the following, a different compound is considered.
Ask: Which cytotoxicity at 70.5 h reading was recorded for the compound "CCn1c(C)nnc1SCCNc1cc(N2CCOCC2)ncn1" ?
Result: -18.8%

* * *

assay: Human HepG2 cell viability assay in 384 well format; format: toxicity, cell-based; set-up: dose 125 nL, time 70.5 hour; concentration not given beside the values; settings: HepG2 cells, read-out: Inhibition
The entries below come with measured cytotoxicity at 70.5 h values attached.
Give the value, in units of %, as a plain number.

Known results for compounds:
Query Smiles	Unit Descriptor	cytotoxicity at 70.5 h
Cn1cc(C(=O)Nc2cccc(Oc3ccncc3)c2)ccc1=O	%	-4.83
O=C(Cc1ccccc1)NCCNS(=O)(=O)C1CCCCC1	%	-2.64

Ask: Which cytotoxicity at 70.5 h reading was recorded for the compound "CC(C)CCNC(=O)c1sccc1N(C)S(=O)(=O)c1ccccc1" ?
Result: 33.2

* * *

test: Human HepG2 cell viability assay in 384 well format; assay type: toxicity, cell-based; design: dose 125 nL, time 70.5 hour; concentration not given beside the values; details: HepG2 cells, read-out: Inhibition
Parameter Measured: cytotoxicity at 70.5 h

Ask: Which cytotoxicity at 70.5 h reading was recorded for the compound c1ccc(N2CCOC3(CCCN(c4ncccn4)C3)C2)nc1 (configuration not stated) ?
Result: -5.71%

Ask: Which cytotoxicity at 70.5 h reading was recorded for the compound "Cc1cccc(C(=O)N2C[C@@H](OCc3ccncc3)[C@@H]3OCCC[C@@H]32)n1" ?
Result: -12.5%

Ask: Which cytotoxicity at 70.5 h reading was recorded for the compound CNC(=O)c1ccc(C2CN(C(=O)c3coc(C)n3)CCO2)nc1 (configuration not stated) ?
Result: -11.4%

Ask: Which cytotoxicity at 70.5 h reading was recorded for the compound CCNc1cc2c(nn1)CCN(C(=O)C(C)c1c(C)noc1C)C2 (configuration not stated) ?
Result: -4.66%

Ask: Which cytotoxicity at 70.5 h reading was recorded for the compound "CN1CCC(Oc2ccc(NC(=O)c3ccccc3)cc2)CC1" ?
Result: -9.56%

Ask: Which cytotoxicity at 70.5 h reading was recorded for the compound Cc1c(NC(C)C(C)C)cccc1C(=O)NCc1nnc(C)n1C (configuration not stated) ?
Result: 8.29%

Ask: Which cytotoxicity at 70.5 h reading was recorded for the compound OC(CN1CCCCCCC1)c1ccc(OC(F)(F)F)cc1 (configuration not stated) ?
Result: 7.33%

* * *

assay: Human HepG2 cell viability assay in 384 well format; format: toxicity, cell-based; parameters: dose 125 nL, time 70.5 hour; concentration not given beside the values; conditions: HepG2 cells, read-out: Inhibition
Parameter Measured: cytotoxicity at 70.5 h (%)
Give the value, in units of %, as a plain number.

Known results for molecules:
Molecule	Parameter Measured	Measured
Cc1nn(C)c2cnn(CC(=O)NCc3ccc(F)cc3)c12	cytotoxicity at 70.5 h	12.4
O=C(c1csc(-c2ccc(C(F)(F)F)cc2)n1)N1CCCNCC1	cytotoxicity at 70.5 h	-2.7
COCC1(NC(=O)Nc2nc(C)ns2)CCCC1	cytotoxicity at 70.5 h	-13.9

Ask: Which cytotoxicity at 70.5 h reading was recorded for the molecule "O=c1n(CCSCc2ccccc2Cl)nc2ccccn12" ?
Result: -6.77

Ask: Which cytotoxicity at 70.5 h reading was recorded for the molecule "CCc1cc(N2CCN(C(C)=O)CC2)n2nc(C)c(C)c2n1" ?
Result: 10.6

Ask: Which cytotoxicity at 70.5 h reading was recorded for the molecule Cc1cnc(Nc2cccc(C3CCCN3C(=O)CO)n2)s1 (stereo not drawn) ?
Result: -6.4

Ask: Which cytotoxicity at 70.5 h reading was recorded for the molecule COc1cc(C2CC(=O)c3c(O)cc(O)cc3O2)ccc1O (stereo not drawn) ?
Result: -8.7

Ask: Which cytotoxicity at 70.5 h reading was recorded for the molecule O=C(C1CN(CC2CC2)CC12CCOCC2)N1CCOCC1 (stereo not drawn) ?
Result: -1.96
